- target_or_test_system: Acetylcholinesterase (Homo sapiens)
- Sequence (P22303 whole entry): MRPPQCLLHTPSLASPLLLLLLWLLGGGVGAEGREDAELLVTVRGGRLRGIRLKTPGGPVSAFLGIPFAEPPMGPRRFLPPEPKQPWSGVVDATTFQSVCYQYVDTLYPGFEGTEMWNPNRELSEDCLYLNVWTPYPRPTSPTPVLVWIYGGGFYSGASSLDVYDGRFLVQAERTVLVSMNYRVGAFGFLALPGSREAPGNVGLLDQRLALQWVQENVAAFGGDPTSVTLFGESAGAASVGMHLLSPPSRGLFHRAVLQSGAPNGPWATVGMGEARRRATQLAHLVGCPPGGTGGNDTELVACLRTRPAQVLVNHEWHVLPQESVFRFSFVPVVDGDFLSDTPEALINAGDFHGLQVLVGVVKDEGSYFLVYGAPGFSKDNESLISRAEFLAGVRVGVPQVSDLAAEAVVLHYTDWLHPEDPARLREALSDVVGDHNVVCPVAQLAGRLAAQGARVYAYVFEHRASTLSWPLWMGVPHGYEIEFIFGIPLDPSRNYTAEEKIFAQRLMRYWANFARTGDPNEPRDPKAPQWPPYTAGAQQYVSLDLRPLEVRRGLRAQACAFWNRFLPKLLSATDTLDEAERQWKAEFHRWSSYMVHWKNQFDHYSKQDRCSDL
- run_description: Inhibition of human recombinant AChE using acetylthiocholine iodide as substrate preincubated for 120 mins before substrate addition by Ellman's method
experimental_readout: pIC50
Numbers only, as −log10 of the molar value.

Here are 3 compounds together with their reported answers.
>>> measurement("CN(CCCOc1ccc2ccc(=O)oc2c1)Cc1cccc(OC(=O)NCCCCCCCN2CCOCC2)c1")
6.92
>>> measurement("CN(CCCOc1ccc2c(=O)c3cccnc3oc2c1)Cc1cccc(OC(=O)NCCCCCc2ccccc2)c1")
7.05
>>> measurement("CN(CCCOc1ccc2c(=O)c3cccnc3oc2c1)Cc1cccc(OC(=O)NCCCCCCCN2CCOCC2)c1")
6.86

query: Look at this compound and give its reported pIC50. "CN(CCCOc1ccc2ccc(=O)oc2c1)Cc1cccc(OC(=O)NCCCCCc2ccccc2)c1"
result: 7.13
